B1: CPOX (parent)
chain: HAPTIHFNYRYFEVEEADGNKQWW

Variants of: B1
assayProtocol: protein stability index of a GFP-peptide fusion (GPS, HEK-293T) (PSI 1-6); higher = more stable;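 note: lentivirally expressed fusions sorted by FACS into six bins by GFP to DsRed ratio, PSI derived from sequencing read proportions per bin multiplied by bin number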
measurementParameters: c terminus: a fixed tail appended
Assign TRUE to entries whose protein stability index meets or exceeds 2; assign FALSE to the rest.

[
  {
    "variantDescriptor": "V14C",
    "groupLabel": "FALSE"
  },
  {
    "variantDescriptor": "E13R",
    "groupLabel": "FALSE"
  },
  {
    "variantDescriptor": "T4R",
    "groupLabel": "FALSE"
  },
  {
    "variantDescriptor": "T4S",
    "groupLabel": "TRUE"
  },
  {
    "variantDescriptor": "A17H",
    "groupLabel": "FALSE"
  },
  {
    "variantDescriptor": "A17K",
    "groupLabel": "TRUE"
  },
  {
    "variantDescriptor": "Q22G",
    "groupLabel": "TRUE"
  },
  {
    "variantDescriptor": "W23Q",
    "groupLabel": "TRUE"
  },
  {
    "variantDescriptor": "D18H",
    "groupLabel": "TRUE"
  },
  {
    "variantDescriptor": "Q22M",
    "groupLabel": "FALSE"
  },
  {
    "variantDescriptor": "F12M",
    "groupLabel": "TRUE"
  }
]

These entries and their values trace back to the supplement of paper PMC10567573.
